biological target: HBO-KAT7 (Homo sapiens, UniProt O95251); construct: encoding amino acid residues 325 to 611 (Uniprot 095251-1) of human KAT7; made in house; host or cells: E. coli BL21 DE3 RIL; experiment: Revised Acetyltransferase Biochemical Assay, KAT7; settings: Table 9 (HBO-KAT7), 1 μM Acetyl coenzyme A
Sequence (O95251 with tags, fused parts or gaps): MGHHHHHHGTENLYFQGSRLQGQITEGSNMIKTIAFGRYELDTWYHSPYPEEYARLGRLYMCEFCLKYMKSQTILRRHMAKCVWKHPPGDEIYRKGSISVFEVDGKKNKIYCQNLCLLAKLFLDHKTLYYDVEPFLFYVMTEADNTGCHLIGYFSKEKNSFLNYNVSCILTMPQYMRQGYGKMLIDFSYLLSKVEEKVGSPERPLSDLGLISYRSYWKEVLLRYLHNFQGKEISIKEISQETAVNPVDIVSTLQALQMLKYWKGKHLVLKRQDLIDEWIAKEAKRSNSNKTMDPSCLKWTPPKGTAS
I'd appreciate it if you could label each record using IC50 and these ranges: zone 1 (below 700 nM), zone 2 (700 nM to below 2000 nM), zone 3 (2000 nM or more)

Worked examples, 8 compounds total:
[ask] Returns: class label. Input: O=C(NCCc1ccccc1-n1ccnn1)C1=Nc2ccc(I)cc2S(=O)(=O)N1
[reply] zone 2

[ask] Returns: class label. Input: O=C(NCC(CO)c1ccccc1)C1=Nc2ccccc2S(=O)(=O)N1 (centres unmarked)
[reply] zone 3

[ask] Returns: class label. Input: O=C(NCC(c1ccccc1)c1ncco1)C1=Nc2ccc(F)cc2S(=O)(=O)N1 (single isomer, unassigned) [Example 144]
[reply] zone 2

[ask] Returns: class label. Input: CC(=O)NC(C)c1ccc2c(c1)S(=O)(=O)NC(C(=O)NCC(c1ccccc1)c1ncco1)=N2 (centres unmarked)
[reply] zone 3

[ask] Returns: class label. Input: O=C(NCCc1ccccc1F)C1=Nc2ccc(Br)cc2S(=O)(=O)N1
[reply] zone 3

[ask] Returns: class label. Input: O=C(NCC(c1ccccc1)c1ncco1)C1=Nc2ccc(I)cc2S(=O)(=O)N1 (centres unmarked) [Example 41]
[reply] zone 1

[ask] Returns: class label. Input: O=C(NCC(c1ccccc1)n1cccn1)C1=Nc2ccc(Br)cc2S(=O)(=O)N1 (centres unmarked)
[reply] zone 1

[ask] Returns: class label. Input: O=C(NCC(c1ccccc1)n1cccn1)C1=Nc2ccccc2S(=O)(=O)N1 (centres unmarked)
[reply] zone 2

Kindly review the next compound as well.
[ask] Returns: class label. Input: O=C(NCC(c1ccccc1)c1ccccc1)C1=Nc2ccc(Br)cc2S(=O)(=O)N1
[reply] zone 2

Numbers sourced from patent US20210380548A1.
